Attribution: patent US11141452B2

assay_target: rNK1 (Rattus norvegicus)
Sequence (P14600 whole entry): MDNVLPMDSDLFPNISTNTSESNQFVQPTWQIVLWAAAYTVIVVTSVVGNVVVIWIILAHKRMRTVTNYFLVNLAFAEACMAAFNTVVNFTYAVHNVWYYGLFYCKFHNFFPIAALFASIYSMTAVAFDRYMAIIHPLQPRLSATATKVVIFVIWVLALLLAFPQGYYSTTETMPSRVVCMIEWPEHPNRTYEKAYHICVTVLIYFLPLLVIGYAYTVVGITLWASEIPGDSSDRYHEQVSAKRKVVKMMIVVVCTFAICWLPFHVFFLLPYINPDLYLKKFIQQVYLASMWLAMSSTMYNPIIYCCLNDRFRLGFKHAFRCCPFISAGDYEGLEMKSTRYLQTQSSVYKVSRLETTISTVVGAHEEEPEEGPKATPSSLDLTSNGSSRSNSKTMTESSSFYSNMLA
test_description: Radioligand binding assay at rat NK1 receptor
condition_info: Ki^rNK1 (nM)
Non-standard residues stand in square brackets, D forms with d. Residues, ends and D or L forms follow the SMILES beside them. *: point of attachment. NH(3,5-(CF3)2-benzyl) = FC(F)(F)c1cc(CN*)cc(C(F)(F)F)c1; NMePhe(4-F) = CN[C@@H](Cc1ccc(F)cc1)C(=O)O; Dmt = Cc1cc(O)cc(C)c1C[C@H](N)C(=O)O; NMeF = CN[C@@H](Cc1ccccc1)C(=O)O
metric: Ki (nM)

* CC(C)C[C@H](NC(=O)[C@@H]1CCCN1C(=O)c1ccc(NC(=O)[C@H](Cc2ccccc2)N(C)C(=O)CNC(=O)[C@@H](C)NC(=O)[C@@H](N)Cc2ccc(O)cc2)cc1)C(=O)N[C@@H](Cc1c[nH]c2ccccc12)C(=O)NCc1cc(C(F)(F)F)cc(C(F)(F)F)c1 | 74
* CC(C)C[C@H](NC(=O)[C@@H]1CCCN1C(=O)[C@H](CCC(N)=O)NC(=O)[C@H](Cc1ccccc1)NC(=O)CNC(=O)[C@@H](C)NC(=O)[C@@H](N)Cc1ccc(O)cc1)C(=O)N[C@@H](Cc1c[nH]c2ccccc12)C(=O)NCc1cc(C(F)(F)F)cc(C(F)(F)F)c1 | 12
* Cc1cc(O)cc(C)c1C[C@H](N)C(=O)N[C@H](C)C(=O)NCC(=O)N(C)[C@@H](Cc1ccccc1)C(=O)N[C@@H](CCC(N)=O)C(=O)NCC(=O)N1CCC[C@H]1C(=O)N[C@@H](CC(C)C)C(=O)N[C@@H](Cc1c[nH]c2ccccc12)C(=O)NCc1cc(C(F)(F)F)cc(C(F)(F)F)c1 [AKG-SK-146] (H-[Dmt][dA]G[NMeF]QGPLW-{NH(3,5-(CF3)2-benzyl)}; N-terminus assumed) | 78.6
* Cc1cc(O)cc(C)c1C[C@H](N)C(=O)N[C@H](C)C(=O)N(C)CC(=O)N(C)[C@@H](Cc1ccccc1)C(=O)N1CCC[C@H]1C(=O)N[C@@H](CC(C)C)C(=O)N[C@@H](Cc1c[nH]c2ccccc12)C(=O)NCc1cc(C(F)(F)F)cc(C(F)(F)F)c1 | 110
* CC(C)C[C@H](NC(=O)[C@@H]1CCCN1C(=O)CNC(=O)[C@H](Cc1ccc(F)cc1)N(C)C(=O)CNC(=O)[C@@H](C)NC(=O)[C@@H](N)Cc1ccc(O)cc1)C(=O)N[C@@H](Cc1c[nH]c2ccccc12)C(=O)NCc1cc(C(F)(F)F)cc(C(F)(F)F)c1 [AKG131] (H-Y[dA]G[NMePhe(4-F)]GPLW-{NH(3,5-(CF3)2-benzyl)}) | 89
* Cc1cc(O)cc(C)c1C[C@H](N)C(=O)N[C@H](C)C(=O)NCC(=O)N(C)[C@@H](Cc1ccccc1)C(=O)N[C@@H](CO)C(=O)NCC(=O)N1CCC[C@H]1C(=O)N[C@@H](CC(C)C)C(=O)N[C@@H](Cc1c[nH]c2ccccc12)C(=O)NCc1cc(C(F)(F)F)cc(C(F)(F)F)c1 [AKG-CRA-137] (H-[Dmt][dA]G[NMeF]SGPLW-{NH(3,5-(CF3)2-benzyl)}) | 87.5

----------
assay_target: MOR
test_description: Radioligand binding assay at μ opioid receptor
Non-standard residues stand in square brackets, D forms with d. Residues, ends and D or L forms follow the SMILES beside them. *: point of attachment. NH(3,5-(CF3)2-benzyl) = FC(F)(F)c1cc(CN*)cc(C(F)(F)F)c1; Dmt = Cc1cc(O)cc(C)c1C[C@H](N)C(=O)O; NMeF = CN[C@@H](Cc1ccccc1)C(=O)O
metric: Ki (nM)

• CC(C)C[C@H](NC(=O)[C@@H]1CCCN1C(=O)c1ccc(NC(=O)[C@H](Cc2ccccc2)N(C)C(=O)CNC(=O)[C@@H](C)NC(=O)[C@@H](N)Cc2ccc(O)cc2)cc1)C(=O)N[C@@H](Cc1c[nH]c2ccccc12)C(=O)NCc1cc(C(F)(F)F)cc(C(F)(F)F)c1 = 1
• CC(C)C[C@H](NC(=O)[C@@H]1CCCN1C(=O)[C@H](CCCCN)NC(=O)[C@H](Cc1ccccc1)N(C)C(=O)CNC(=O)[C@@H](C)NC(=O)[C@@H](N)Cc1ccc(O)cc1)C(=O)N[C@@H](Cc1c[nH]c2ccccc12)C(=O)NCc1cc(C(F)(F)F)cc(C(F)(F)F)c1 [AKG174] (H-Y[dA]G[NMeF]KPLW-{NH(3,5-(CF3)2-benzyl)}; N-terminus assumed) = 8
• Cc1cc(O)cc(C)c1C[C@H](N)C(=O)N[C@H](C)C(=O)N[C@@H](Cc1ccccc1)C(=O)NCC(=O)N[C@@H](Cc1ccc(O)cc1)C(=O)N1CCC[C@H]1C(=O)N[C@@H](CC(C)C)C(=O)N[C@@H](Cc1c[nH]c2ccccc12)C(=O)NCc1cc(C(F)(F)F)cc(C(F)(F)F)c1 [AKG118] (H-[Dmt][dA]FGYPLW-{NH(3,5-(CF3)2-benzyl)}) = 1
